- Tested on: SK-MEL-5 melanoma
- method.summary: NCI tumour cell line growth inhibition, 48 h
parameter: TGI

// known answers, use as guide
Cc1ccc(C(=O)/C(=C\c2ccc([N+](=O)[O-])cc2)S(=O)Cc2ccc(F)cc2)cc1 (stereo not given) | 3.32 µM
CN1CCN(C(=O)c2c(NC(=O)NS(=O)(=O)c3ccccc3)sc3c2CCCCC3)CC1 | 40.2 µM
Cc1[nH]c(=O)nc2nc3ccc(Cl)cc3c(NC(C)(CO)CO)c12 | > 100 µM

The measured TGI that CC(=O)OC1CC[C@@]2(C)C(CC[C@]3(C)C2CC=C2[C@@H]4CC(C)(C)CCC4(C)CCC23C)[C@@]1(C)C(=O)O (stereo not given in full) showed for SK-MEL-5 melanoma is 47.9 µM

The measured TGI that `O=c1cc(-c2ccccc2)[nH]c2c(Cl)cccc12` showed for SK-MEL-5 melanoma is 45.4 µM

The measured TGI that `CCNc1cc2c3c(c1)CCCN3CCC2` showed for SK-MEL-5 melanoma is 28.2 µM

The measured TGI that `COc1ccc(N=N/C(=N/NC(=O)c2cc(Cl)ccc2C(=O)c2ccccc2)c2ccc(N(CCC#N)CCC#N)cc2C)cc1` showed for SK-MEL-5 melanoma is 31.6 µM

The measured TGI that `CCCCNC(=S)c1ccc(OC(=O)Nc2ccc(Cl)cc2)cc1` showed for SK-MEL-5 melanoma is > 100 µM

The measured TGI that `COc1ccc(/C=N\NC(=O)Nc2cccc3ccccc23)cc1` showed for SK-MEL-5 melanoma is > 100 µM

The measured TGI that `COc1cc(O)c2c(=O)c(OC)c(-c3ccc4c(c3)OCO4)oc2c1OC` showed for SK-MEL-5 melanoma is > 50 µM

The measured TGI that `CCOC(=O)[C@H]1CSC[C@@H](C(=O)OC)N1` showed for SK-MEL-5 melanoma is > 100 µM

The measured TGI that `COc1cc2c(cc1OC)-c1ccc3cc4c(cc3c1N(CCN(C)C)C2)OCO4` showed for SK-MEL-5 melanoma is 3.01 µM

---

- Test system: SF-295 CNS
- method.summary: NCI tumour cell line growth inhibition, 48 h
The entries below are paired with their reported TGI.

// known answers, use as guide
NC(=O)C[C@H](NC(=O)C1(NC(=O)[C@H](Cc2ccc(CP(=O)(O)O)cc2)NC(=O)C(=O)O)CCCCC1)C(=O)NCCCc1cccc2ccccc12 | > 10 µM
CCCC(=O)Nc1cc(/C=C/C(=O)N2CC(CCl)c3c2cc([N+](=O)[O-])c2ccccc32)n(C)c1 (stereo unspecified) | > 100 µM
Cc1ccc(C(=O)N2c3ccccc3N(C)n3cccc3C2CC(=O)O)cc1 (stereo unspecified) | > 100 µM
O=C(Nc1ccc2[nH]c(C(=O)N3CC(CCl)c4c3cc([N+](=O)[O-])c3ccccc43)cc2c1)c1cc2ccccc2o1 (stereo unspecified) | > 1100 µM
N/C(=N\N=C\c1cc2c(cc1Cl)OCO2)NO | 74.8 µM

# input for lookup
// TGI value for `COc1cc([C@@H]2c3cc4c(cc3[C@@H](N=Cc3ccc(C(=O)O[C@@H](C(=O)O[C@H]5C[C@@]6(O)[C@@H](OC(=O)c7ccccc7)[C@@H]7[C@]8(OC(C)=O)CO[C@@H]8C[C@H](O)[C@@]7(C)C(=O)[C@H](OC(C)=O)C(=C5C)C6(C)C)[C@@H](NC(=O)c5ccccc5)c5ccccc5)cc3)[C@H]3COC(=O)[C@H]23)OCO4)cc(OC)c1O` : 24.8 µM
